# ASSAYED TARGET: T1, huNav1.5α+β1-β2-β3 (human, UniProt Q14524 1-2016; A5A6L6 19-218; O60939 30-215; Q2KI11 23-215)
# T1 construct: in the cell P2A cleaves it into α, β1, β2, β3; also called huNav1.5-beta1-beta2-beta3
# TEST: binding FACS, HEK FlpIn cells
REPORTED ENDPOINT: binding result

F0103464B09 (parental)-FLAG-HIS6 (VHH, also called F103464B09) VHH: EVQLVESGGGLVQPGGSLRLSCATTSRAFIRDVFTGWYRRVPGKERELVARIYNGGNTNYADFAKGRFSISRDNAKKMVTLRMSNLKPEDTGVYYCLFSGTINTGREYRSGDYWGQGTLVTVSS | no binding
F0103265A11 (parental)-FLAG-HIS6 (VHH, also called F01033265A11) VHH: EVQLVESGGGLVQPGGSLRLSCAASGMLFNANTQGWYRQAPGKQRELVAFIFSGGYTNYVDSVKGRFTISRDNAKRTMYLQMNSLKPEDSAIYYCSLSRYLGQGTLVTVSS | no binding
F0103262C02 (parental)-FLAG-HIS6 (VHH, also called F0103262CO2; F103262CO2) VHH: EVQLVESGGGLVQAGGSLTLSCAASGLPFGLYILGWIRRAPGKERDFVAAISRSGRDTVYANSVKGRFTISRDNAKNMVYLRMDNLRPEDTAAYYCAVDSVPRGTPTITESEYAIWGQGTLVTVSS | no binding
F0103362B08 (parental)-FLAG-HIS6 (VHH) VHH: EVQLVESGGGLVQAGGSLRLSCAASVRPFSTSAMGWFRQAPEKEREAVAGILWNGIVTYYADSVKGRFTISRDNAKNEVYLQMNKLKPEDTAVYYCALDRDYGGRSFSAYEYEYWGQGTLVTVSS | no binding

Consider the record given below.
Value of measured binding result for the entry F0103387G05 (parental)-FLAG-HIS6 (VHH) VHH: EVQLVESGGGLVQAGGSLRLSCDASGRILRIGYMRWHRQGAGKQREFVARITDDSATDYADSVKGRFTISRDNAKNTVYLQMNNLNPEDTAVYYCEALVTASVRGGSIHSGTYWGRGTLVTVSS : no binding
